Target: soluble human insulin receptor (IR-Fc) (human) (UniProt P06213)
Assay: phage ELISA
Collected ratio over background values appear next to each entry.
Readout type: ratio over background

[
  {
    "Binder": "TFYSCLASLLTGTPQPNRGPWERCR [20C-3-G3-IGFR]",
    "Result": 1.2
  },
  {
    "Binder": "QAVQPGFHEEFYDWFVRQVSTGVGGG [H2CA-4-H4-IGFR]",
    "Result": 1
  },
  {
    "Binder": "VGTVAGFYDAIAQLVARASRV [20E2A-3-C7-IGFR]",
    "Result": 1.1
  },
  {
    "Binder": "YSCGDGFYSLLSDLLGGQFRC [20E2B-4-H12-IGFR]",
    "Result": 0.8
  },
  {
    "Binder": "SSCDGAGHESFYEWFVRQVSGCRSV [H2CA-3-C8-IGFR]",
    "Result": 1.2
  },
  {
    "Binder": "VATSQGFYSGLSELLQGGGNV [20E2B-3-E12-IGFR]",
    "Result": 0.8
  },
  {
    "Binder": "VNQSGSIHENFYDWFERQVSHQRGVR [H2CA-4-F10-IGFR]",
    "Result": 1
  },
  {
    "Binder": "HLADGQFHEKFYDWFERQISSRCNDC [H2CA-3-E11-IGFR]",
    "Result": 1
  },
  {
    "Binder": "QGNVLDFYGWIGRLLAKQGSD [20E2B-3-D12-IGFR]",
    "Result": 0.9
  },
  {
    "Binder": "APDPSDFQEIFYDWFVRQVSRMPGGG [H2CA-1-A3-IGFR]",
    "Result": 0.8
  },
  {
    "Binder": "RFDPFYSYFVNLLGASA [NNRPγ-4-A7-IR]",
    "Result": 1.3
  },
  {
    "Binder": "VGYQGQGDENFYDWFIRQVSGRLGVQ [H2CA-4-F5-IGFR]",
    "Result": 0.8
  },
  {
    "Binder": "IWATGDFYRLLSQLVMGRVGT [20E2B-2-B8-IGFR]",
    "Result": 0.8
  },
  {
    "Binder": "AQPCGGFYGLLEQLVGRSVCD [20E2B-4-F10-IGFR]",
    "Result": 2.2
  }
]
